Data provenance is PubChem BioAssay AID1963982.

# Test system: 313798-341-R-J2-PDC spheroids, viability
# Assay notes: Anticancer human tumor 313798-341-R-J2-PDC patient-derived cervical squamous cell carcinoma cell line growth inhibition [PI3K]
# Test conditions: compound alone; run of 04/25/2023; spheroids with HUVEC and MSC
Recorded IC50 by entry

INSERT INTO measurements (compound, experimental_result) VALUES
  ('CC(Nc1ncnc2nc[nH]c12)c1cc2cccc(Cl)c2c(=O)n1-c1ccccc1 (configuration not stated)', '> 10 µM');

Now, please, on to the next compound.
Return reported IC50; argument: "COc1c(OCCCN2CCOCC2)ccc2c3n(c(=NC(=O)c4cnc(N)nc4)nc12)CCN3"
80.2 nM [middle of 7 runs]

* * *

# Tested on: 313798-341-R-J2-PDC spheroids, viability
# Assay notes: Anticancer human tumor 313798-341-R-J2-PDC cell line growth inhibition [PI3K];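 note: spheroids exposed to compounds for seven days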;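 for viability, T/C: 100% = DMSO vehicle control viability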
# Test conditions: second compound 0.1 µM; first compound 0.1 µM; stronger effect = lower value; spheroids with HUVEC and MSC
Recorded viability, T/C by entry
Give the value in % but do not write % after it.

Return reported viability, T/C; argument: CCN1CCN(Cc2ccc(Nc3ncc(F)c(-c4cc(F)c5nc(C)n(C(C)C)c5c4)n3)nc2)CC1 + COc1c(OCCCN2CCOCC2)ccc2c3n(c(=NC(=O)c4cnc(N)nc4)nc12)CCN3
36.6

Let us now turn to CC(C)n1nc(-c2ccc3oc(N)nc3c2)c2c(N)ncnc21 + CC(Nc1ccc2c(c1)OCCn1cc(N3C(=O)OCC3C(F)F)nc1-2)C(N)=O
33.2

Let us now turn to CC(=O)c1c(C)c2cnc(Nc3ccc(N4CCNCC4)cn3)nc2n(C2CCCC2)c1=O + CC(Nc1ccc2c(c1)OCCn1cc(N3C(=O)OCC3C(F)F)nc1-2)C(N)=O
113

Let us now turn to Cn1nccc1Nc1nccc(-c2ccn(C(CO)c3ccc(Cl)c(F)c3)c(=O)c2)n1 (stereo unspecified) + CC(Nc1ncnc2nc[nH]c12)c1cc2cccc(Cl)c2c(=O)n1-c1ccccc1
108

* * *

# Tested on: 313798-341-R-J2-PDC spheroids, viability
# Assay notes: Anticancer human tumor 313798-341-R-J2-PDC cell line growth inhibition [PI3K];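 note: spheroids exposed to compounds for seven days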;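 for viability, T/C: 100% = DMSO vehicle control viability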
# Test conditions: second compound 0.0316 µM; first compound 0.0316 µM; stronger effect = lower value; spheroids with HUVEC and MSC
Readout name: viability, T/C (%)
Give the value in % but do not write % after it.

Past entries and their recorded results:
INSERT INTO assay_data (molecule, tgt, experimental_result) VALUES
  ('C[C@@H](NC(=O)c1ncnc(N)c1Cl)c1ncc(C(=O)Nc2cc(C(F)(F)F)c(Cl)cn2)s1 + CC(Nc1ncnc2nc[nH]c12)c1cc2cccc(Cl)c2c(=O)n1-c1ccccc1', '313798-341-R-J2-PDC spheroids, viability', 90.2),
  ('CC1(C)CCC(CN2CCN(c3ccc(C(=O)NS(=O)(=O)c4ccc(NCC5CCOCC5)c([N+](=O)[O-])c4)c(Oc4cnc5[nH]ccc5c4)c3)CC2)=C(c2ccc(Cl)cc2)C1 + CC(Nc1ccc2c(c1)OCCn1cc(N3C(=O)OCC3C(F)F)nc1-2)C(N)=O', '313798-341-R-J2-PDC spheroids, viability', 92.6),
  ('Cn1nccc1Nc1nccc(-c2ccn(C(CO)c3ccc(Cl)c(F)c3)c(=O)c2)n1 (stereo unspecified) + CC(Nc1ccc2c(c1)OCCn1cc(N3C(=O)OCC3C(F)F)nc1-2)C(N)=O', '313798-341-R-J2-PDC spheroids, viability', 109),
  ('C=CC(=O)N1CCN(c2nc(=O)n(-c3c(C)ccnc3C(C)C)c3nc(-c4c(O)cccc4F)c(F)cc23)C(C)C1 (stereo unspecified) + Cc1nc(NC(=O)N2CCCC2C(N)=O)sc1-c1ccnc(C(C)(C)C(F)(F)F)c1', '313798-341-R-J2-PDC spheroids, viability', 99.9),
  ('CC(Cn1ccc(-c2ccc(C#N)c(Cl)c2)n1)NC(=O)c1cc(C(C)O)[nH]n1 (stereo unspecified) + CC(Nc1ccc2c(c1)OCCn1cc(N3C(=O)OCC3C(F)F)nc1-2)C(N)=O', '313798-341-R-J2-PDC spheroids, viability', 122);

Return reported viability, T/C; argument: CC(Cn1ccc(-c2ccc(C#N)c(Cl)c2)n1)NC(=O)c1cc(C(C)O)[nH]n1 (stereo unspecified) + Cc1nc(NC(=O)N2CCCC2C(N)=O)sc1-c1ccnc(C(C)(C)C(F)(F)F)c1
103

Let us now turn to C#Cc1c(F)ccc2cc(O)cc(-c3ncc4c(N5CC6CCC(C5)N6)nc(OCC56CCCN5CC(F)C6)nc4c3F)c12 (stereo unspecified) + Cc1nc(NC(=O)N2CCCC2C(N)=O)sc1-c1ccnc(C(C)(C)C(F)(F)F)c1
92.7

Let us now turn to Cn1nccc1Nc1nccc(-c2ccn(C(CO)c3ccc(Cl)c(F)c3)c(=O)c2)n1 (stereo unspecified) + COc1c(OCCCN2CCOCC2)ccc2c3n(c(=NC(=O)c4cnc(N)nc4)nc12)CCN3
75.8

Let us now turn to CC(C)n1nc(-c2ccc3oc(N)nc3c2)c2c(N)ncnc21 + CC(Nc1ccc2c(c1)OCCn1cc(N3C(=O)OCC3C(F)F)nc1-2)C(N)=O
60.6

Let us now turn to C=CC(=O)N1CCN(c2nc(=O)n(-c3c(C)ccnc3C(C)C)c3nc(-c4c(O)cccc4F)c(F)cc23)C(C)C1 (stereo unspecified) + COc1c(OCCCN2CCOCC2)ccc2c3n(c(=NC(=O)c4cnc(N)nc4)nc12)CCN3
70.6

Let us now turn to Cn1ncnc1[C@H]1c2n[nH]c(=O)c3cc(F)cc(c23)N[C@@H]1c1ccc(F)cc1 + COc1c(OCCCN2CCOCC2)ccc2c3n(c(=NC(=O)c4cnc(N)nc4)nc12)CCN3
64.2

Let us now turn to C=CC(=O)N1CCN(c2nc(=O)n(-c3c(C)ccnc3C(C)C)c3nc(-c4c(O)cccc4F)c(F)cc23)C(C)C1 (stereo unspecified) + CC(Nc1ncnc2nc[nH]c12)c1cc2cccc(Cl)c2c(=O)n1-c1ccccc1
112

Let us now turn to CCN1CCN(Cc2ccc(Nc3ncc(F)c(-c4cc(F)c5nc(C)n(C(C)C)c5c4)n3)nc2)CC1 + CC(Nc1ncnc2nc[nH]c12)c1cc2cccc(Cl)c2c(=O)n1-c1ccccc1
114

Let us now turn to C[C@@H](NC(=O)c1ncnc(N)c1Cl)c1ncc(C(=O)Nc2cc(C(F)(F)F)c(Cl)cn2)s1 + Cc1nc(NC(=O)N2CCCC2C(N)=O)sc1-c1ccnc(C(C)(C)C(F)(F)F)c1
106

Let us now turn to CC(C)n1nc(-c2ccc3oc(N)nc3c2)c2c(N)ncnc21 + COc1c(OCCCN2CCOCC2)ccc2c3n(c(=NC(=O)c4cnc(N)nc4)nc12)CCN3
44.3

Let us now turn to C#Cc1c(F)ccc2cc(O)cc(-c3ncc4c(N5CC6CCC(C5)N6)nc(OCC56CCCN5CC(F)C6)nc4c3F)c12 (stereo unspecified) + COc1c(OCCCN2CCOCC2)ccc2c3n(c(=NC(=O)c4cnc(N)nc4)nc12)CCN3
70.2

Let us now turn to Cn1ncnc1[C@H]1c2n[nH]c(=O)c3cc(F)cc(c23)N[C@@H]1c1ccc(F)cc1 + CC(Nc1ncnc2nc[nH]c12)c1cc2cccc(Cl)c2c(=O)n1-c1ccccc1
89.5

Let us now turn to CNC(=O)c1ccc(N2C(=S)N(c3ccc(C#N)c(C(F)(F)F)c3)C(=O)C2(C)C)cc1F + Cc1nc(NC(=O)N2CCCC2C(N)=O)sc1-c1ccnc(C(C)(C)C(F)(F)F)c1
97.5

Let us now turn to CC(Cn1ccc(-c2ccc(C#N)c(Cl)c2)n1)NC(=O)c1cc(C(C)O)[nH]n1 (stereo unspecified) + CC(Nc1ncnc2nc[nH]c12)c1cc2cccc(Cl)c2c(=O)n1-c1ccccc1
119

Let us now turn to CCN1CCN(Cc2ccc(Nc3ncc(F)c(-c4cc(F)c5nc(C)n(C(C)C)c5c4)n3)nc2)CC1 + CC(Nc1ccc2c(c1)OCCn1cc(N3C(=O)OCC3C(F)F)nc1-2)C(N)=O
117

Let us now turn to Cn1ncc(Cl)c1-c1cc(C(=O)NC(CN)Cc2cccc(F)c2)sc1Cl (stereo unspecified) + COc1c(OCCCN2CCOCC2)ccc2c3n(c(=NC(=O)c4cnc(N)nc4)nc12)CCN3
99.3
